Tested on: MYB mRNA
Assay: RT-qPCR splicing assay, MYB mRNA canonical (CJ) and alternative (AJ) junction
Assay type: cell-based, human
Settings: Homo sapiens, MYB canonical junction mRNA, RT-qPCR; read-out: MYB CJ (decrease in CJ mRNA levels, IC50)
Where a name gives a salt, the structure may show the parent alone.
The entries below come with measured IC50 values attached.

COMPOUND: COc1cc(-c2ccc3nc(N4CCC(NC(C)(C)C)C4)ncc3n2)cnn1 (stereo not shown) [Compound 405]
IC50: 1000 to 10000 nM
--
COMPOUND: Cc1nc2cc(O)c(-c3ccc4nc(N5CC[C@@H](N(C)C(C)(C)C)C5)ccc4n3)cc2o1 [Compound 493]
IC50: < 100 nM
--
COMPOUND: CNC1CCN(c2ccc3nc(-c4cc5cn(C)nc5c(C)c4O)ncc3n2)C1 (stereo not shown) [Compound 337]
IC50: < 100 nM
--
COMPOUND: Cc1c(O)c(-c2ccc3nc(N4CC[C@H](NC(C)(C)C)C4)ccc3n2)cc2cn(C)nc12 [Compound 250]
IC50: < 100 nM
--
COMPOUND: Cn1cc2cc(-c3ncc4nc(C5CCNCC5)ccc4n3)c(O)cc2n1 [Compound 107]
IC50: 100 to 1000 nM
--
COMPOUND: CNC(=O)c1nc(-c2cc3cn(C)nc3c(F)c2O)nc2ccc(N3CCC(N(C)C)CC3)cc12 [Compound 528]
IC50: < 100 nM
--
COMPOUND: Cn1cc2nc(-c3ccc4nc(N5CCC(NC(C)(C)C)C5)ccc4n3)c(F)cc2n1 (stereo not shown) [Compound 207]
IC50: 1000 to 10000 nM
--
COMPOUND: Cn1cc2c(O)c(-c3cc4ccc(C5CCNCC5)nc4cn3)cc(Br)c2n1 [Compound 141]
IC50: 100 to 1000 nM
--
COMPOUND: Cc1c(O)c(-c2cc(Cl)c3cc(N4CCNCC4)cc(C)c3n2)cc2cn(C)nc12 [Compound 482, hydrochloride]
IC50: < 100 nM
--
COMPOUND: COc1cc2c(=O)n(C)cnc2cc1-c1ccc2nc(N3CCC(NC(C)(C)C)C3)ccc2n1 (stereo not shown) [Compound 168]
IC50: > 10000 nM
--
COMPOUND: Cc1cn2cc(-c3ccc4nc(C5CCNCC5)ccc4n3)c(O)c(C)c2n1 [Compound 151]
IC50: 100 to 1000 nM
--
COMPOUND: C[C@@H]1CN(c2ccc3nc(-c4cc5cn(C)nc5c(F)c4O)nc(C4CC4)c3c2)C[C@H](C)N1 [Compound 542]
IC50: < 100 nM
--
COMPOUND: Cc1nc2cc(O)c(-c3ccc4nc(N5CC[C@H](NC6CC6)C5)ncc4n3)cc2o1 [Compound 435]
IC50: 100 to 1000 nM
--
COMPOUND: Cc1nc2cc(O)c(-c3ccc4nc(N5CCC(NC(C)C)C5)ccc4n3)cc2o1 (stereo not shown) [Compound 231]
IC50: < 100 nM
--
COMPOUND: Cn1cc2cc(-c3ccc4nc(N5CCC56CCNCC6)ccc4n3)c(O)cc2n1 [Compound 164]
IC50: 100 to 1000 nM
--
COMPOUND: Cc1nc2c(F)c(O)c(-c3ccc4nc(N5CC[C@@H](NC6(C)CC6)C5)ccc4n3)cc2o1 (stereo in doubt) [Compound 326]
IC50: < 100 nM
